Molecular target: T1, MEG-3 (wild type) (Caenorhabditis elegans, UniProt Q9TXM1 1-862)
T1 sequence: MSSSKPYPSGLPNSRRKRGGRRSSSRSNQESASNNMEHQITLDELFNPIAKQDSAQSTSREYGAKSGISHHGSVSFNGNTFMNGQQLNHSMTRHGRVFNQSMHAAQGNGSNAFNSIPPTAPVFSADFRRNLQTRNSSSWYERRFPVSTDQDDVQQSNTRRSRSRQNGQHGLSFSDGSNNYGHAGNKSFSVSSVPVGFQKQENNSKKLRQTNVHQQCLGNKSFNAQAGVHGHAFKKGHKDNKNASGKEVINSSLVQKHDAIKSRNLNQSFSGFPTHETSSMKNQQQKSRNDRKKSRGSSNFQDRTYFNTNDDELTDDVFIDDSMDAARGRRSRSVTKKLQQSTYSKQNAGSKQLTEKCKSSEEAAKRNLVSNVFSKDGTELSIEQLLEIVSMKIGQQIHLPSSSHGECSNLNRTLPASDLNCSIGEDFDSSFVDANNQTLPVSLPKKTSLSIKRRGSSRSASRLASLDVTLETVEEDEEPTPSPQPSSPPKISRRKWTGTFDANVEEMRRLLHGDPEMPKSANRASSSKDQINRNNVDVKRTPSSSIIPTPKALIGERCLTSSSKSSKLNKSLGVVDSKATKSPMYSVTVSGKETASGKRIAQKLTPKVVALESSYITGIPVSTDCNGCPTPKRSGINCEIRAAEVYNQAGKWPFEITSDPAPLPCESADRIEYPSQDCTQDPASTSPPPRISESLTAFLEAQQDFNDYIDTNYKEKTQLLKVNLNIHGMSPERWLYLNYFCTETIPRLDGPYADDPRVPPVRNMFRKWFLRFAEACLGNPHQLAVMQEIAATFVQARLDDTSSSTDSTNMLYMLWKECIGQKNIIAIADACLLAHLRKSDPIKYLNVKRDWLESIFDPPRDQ
Assay: filter binding; mean and SD computed from four replicate fits: 809.8, 808.8, 661.5, 695.9; Hill model; 50 nM RNA; 3.75 mM HEPES (stock pH 7.4), 150 mM NaCl, 0.9 mM beta-mercaptoethanol, 1.5% glycerol, 10 mM Tris HCl; 30 min, room temperature; nitrocellulose/Hybond-N+ dot blot
Settings: protein: recombinant; tags: N-terminal 6xHis (pET28a); label: 3' fluorescein
valueType: pKd
Please keep in mind that pKd is minus log10 of the molar concentration; only the number is needed.

response.value for UUUUUUUUUUUUUUUUUUUUUUUUUUUUUU (ssRNA) [poly-U(30) (30U)] (field: pKd) = 6.13
